I'd appreciate it if you could supply ncRNA array expression, patient 3 values for the items below.
- System: ncRNAs (SEQ ID NO 28-89)
- Experiment Summary: ncRNA arrays of melanocytes, keratinocytes, normal skin, melanoma cell lines and patient samples
- Design: species or system human
- Conditions Used: melanoma patient 3 sample compared to normal skin
Answers are plain numbers.

The examples below pair each entry with its known result.
# Substance, Tested System, ncRNA array expression, patient 3
measured = [
    ("SEQ ID NO 42 (TAGACATAGGTTAGAGGGGGAACAGTGCTTAAAATTCCATGGAACTAAGATTTTTTTTAT; listed as DNA, chemistry not given here; listed as Homo sapiens)", "ncRNAs (SEQ ID NO 28-89)", "−1.941"),
    ("SEQ ID NO 54 (TTTTTTTTCTTGTCCTATTACAACATTTTATAACCTTATGAATCAATGGATACTTTTATT; listed as DNA, chemistry not given here; listed as Homo sapiens)", "ncRNAs (SEQ ID NO 28-89)", 2.627),
]

Give me ncRNA array expression, patient 3 for each of these substances, listed below.
1. SEQ ID NO 66 (TCCTTTTTATCTTGCACTCAGATGGTATTTTTAGAGATGTTTCTTCAATCAAAACAAGAT; listed as DNA, chemistry not given here; listed as Homo sapiens)
2. SEQ ID NO 41 (CTCGTAACACTGGGAAAACTGCATACAATATTTAGAAGGAACACTAATACAGCAGAATCT; listed as DNA, chemistry not given here; listed as Homo sapiens)

1. 2.044
2. −2.702

Lookup result for SEQ ID NO 52 (TTTTCTTAGTCTTTTTACTTTTTCCATTATATTCTTTGATATATTTGAGAAAATGGCTTG; listed as DNA, chemistry not given here; listed as Homo sapiens) ; measured ncRNA array expression, patient 3: 1.986

* * *

- Tested on: ncRNAs (SEQ ID NO 28-89)
- Experiment Summary: ncRNA arrays of melanocytes, keratinocytes, normal skin, melanoma cell lines and patient samples
- Design: species or system human
- Conditions Used: melanoma patient 30 sample compared to normal skin
Experimental Endpoint: ncRNA array expression, patient 30
One number for each entry.

Below, each entry is followed by its recorded ncRNA array expression, patient 30 result.
# Substance, Tested System, ncRNA array expression, patient 30
rows = [
    ("SEQ ID NO 88 (CTGTTGCTTATTCTGGGAGCCCAATCCTAGGCTGAGGGAGGTGGGCGCGGGGCTGTTTAA; listed as DNA, chemistry not given here; listed as Homo sapiens)", "ncRNAs (SEQ ID NO 28-89)", 0.7208),
    ("SEQ ID NO 68 (CAAAAAGAAATCTTGTTTACTTGTAAAAATATAGACTACCTCCTACTTGCCACCGTTAAG; listed as DNA, chemistry not given here; listed as Homo sapiens)", "ncRNAs (SEQ ID NO 28-89)", "−0.1058"),
    ("SEQ ID NO 69 (AGAGTTCGCACTGGGAAGAGTTAAAAAATAAACATTTACAAGGACGAGGAAAGCGGCCCC; listed as DNA, chemistry not given here; listed as Homo sapiens)", "ncRNAs (SEQ ID NO 28-89)", 0.8457),
    ("SEQ ID NO 71 (AAAATTCCAAGAGGGCCTTTTCGAATAGACGCATGAACGGTGTTTGTGTCTGGATCGTCC; listed as DNA, chemistry not given here; listed as Homo sapiens)", "ncRNAs (SEQ ID NO 28-89)", "−2.464"),
    ("SEQ ID NO 46 (CTATTGGAGTGCATATAAATTCTTGATAGCACCAGTTCTCAAATATGAGGTGTTAAAAAC; listed as DNA, chemistry not given here; listed as Homo sapiens)", "ncRNAs (SEQ ID NO 28-89)", 0.4452),
    ("SEQ ID NO 89 (GGACACAGAGAGTCATGCACCAGCCCAGTGAGAACCAATTCAGAGCCAAATGCCAAACCC; listed as DNA, chemistry not given here; listed as Homo sapiens)", "ncRNAs (SEQ ID NO 28-89)", 0.7591),
    ("SEQ ID NO 87 (GGGATATTTTTAAGGGGAAGGGGAAGGATAGAGAGAAAGTGCAGGCAGGGCTGGGGTCTG; listed as DNA, chemistry not given here; listed as Homo sapiens)", "ncRNAs (SEQ ID NO 28-89)", 0.7984),
    ("SEQ ID NO 50 (GTTATTATAACCAATGCAGACTTTAAAATCCCACCTGGACATCGGGTGAGAGGAGGAGGG; listed as DNA, chemistry not given here; listed as Homo sapiens)", "ncRNAs (SEQ ID NO 28-89)", "−0.3312"),
    ("SEQ ID NO 66 (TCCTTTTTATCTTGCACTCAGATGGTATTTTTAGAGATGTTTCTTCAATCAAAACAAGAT; listed as DNA, chemistry not given here; listed as Homo sapiens)", "ncRNAs (SEQ ID NO 28-89)", "−2.558"),
]

Response field ncRNA array expression, patient 30 (ncRNAs (SEQ ID NO 28-89)) for item SEQ ID NO 56 (AAAAAATGAGGCAATCTCATCCCGAAACTATTTAAAACTACTCTCCTCTCTCTTGATAAA; listed as DNA, chemistry not given here; listed as Homo sapiens) : −0.5599

* * *

- Test system: ncRNAs (SEQ ID NO 28-89)
- Experiment Summary: ncRNA arrays of melanocytes, keratinocytes, normal skin, melanoma cell lines and patient samples
- Parameters: species or system human
- Conditions Used: melanoma patient 21 sample compared to normal skin
Experimental Endpoint: ncRNA array expression, patient 21
Answers are plain numbers.

Worked examples follow.
# Substance, ncRNA array expression, patient 21
rows = [
    ("SEQ ID NO 40 (GTTAAAGACTAAATTAGTGATTTGGGAGATCAAGCCAATGGGCTTGTCTAAAACCTAGTC; listed as DNA, chemistry not given here; listed as Homo sapiens)", 0.489),
    ("SEQ ID NO 77 (AAGTTTCCACGGCAGGTTCTCGTAGCACCTTTGGTCAAGAACTGAAGGGGCCTTTAGATG; listed as DNA, chemistry not given here; listed as Homo sapiens)", "−1.23"),
    ("SEQ ID NO 89 (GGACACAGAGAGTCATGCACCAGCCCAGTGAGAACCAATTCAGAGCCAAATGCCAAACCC; listed as DNA, chemistry not given here; listed as Homo sapiens)", "−1.104"),
    ("SEQ ID NO 47 (GTATTTGTAATATTTGATTTGCTTTTAGCAGAGAAAACAATAAAAGAATCCAGGAAAAGT; listed as DNA, chemistry not given here; listed as Homo sapiens)", "−2.249"),
]

Okay, now this substance:
ncRNA array expression, patient 21 in this record for SEQ ID NO 30 (ATTCCAAGGCCTATTAAAATTTCTGAGCATTGCCCATTTCTTTTGCTTTATCTGTAGGAC; DNA, backbone and methylation of C not given here; listed as Homo sapiens) : 3.468

* * *

- System: ncRNAs (SEQ ID NO 28-89)
- Experiment Summary: ncRNA arrays of melanocytes, keratinocytes, normal skin, melanoma cell lines and patient samples
- Parameters: species or system human
- Conditions Used: melanoma patient 27 sample compared to normal skin
Experimental Endpoint: ncRNA array expression, patient 27
Numbers only.

# Substance, ncRNA array expression, patient 27
measured = [
    ("SEQ ID NO 28 (CTTAATGTATCTAAGGTTGGCTTAATCCTGTCTAAAATCAAGGTATTGGACTAGAACAAT; DNA, backbone and methylation of C not given here; listed as Homo sapiens)", 2.371),
]

Please state ncRNA array expression, patient 27 for every substance in the list that follows.
1. SEQ ID NO 89 (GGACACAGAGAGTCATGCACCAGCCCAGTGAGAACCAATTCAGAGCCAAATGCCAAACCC; listed as DNA, chemistry not given here; listed as Homo sapiens)
2. SEQ ID NO 51 (ATGTATTTTAGGTAATAAGATTTTTATCAATTGTGTCTTTTTCTTTCTTTGCTTTCTATA; listed as DNA, chemistry not given here; listed as Homo sapiens)

1. −0.9956
2. 1.166

* * *

- Test system: ncRNAs (SEQ ID NO 28-89)
- Experiment Summary: ncRNA arrays of melanocytes, keratinocytes, normal skin, melanoma cell lines and patient samples
- Set-up: species or system human
- Conditions Used: melanoma patient 19 sample compared to normal skin
Experimental Endpoint: ncRNA array expression, patient 19
Numbers only.

In the examples that follow, each entry is paired with its recorded ncRNA array expression, patient 19.
# Substance, ncRNA array expression, patient 19
measured = [
    ("SEQ ID NO 86 (AAAATTATTTTATCTTAAGTTTCCATTTAGTTGATTAAAAATAGGGTTATGAATGTTAAA; listed as DNA, chemistry not given here; listed as Homo sapiens)", 1.409),
    ("SEQ ID NO 30 (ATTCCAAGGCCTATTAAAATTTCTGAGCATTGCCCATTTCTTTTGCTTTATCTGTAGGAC; DNA, backbone and methylation of C not given here; listed as Homo sapiens)", 0.5363),
]

Attention now turns to another entry.
Note to self: ncRNA array expression, patient 19 recorded for SEQ ID NO 41 (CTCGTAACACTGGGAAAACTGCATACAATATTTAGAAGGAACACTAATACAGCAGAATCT; listed as DNA, chemistry not given here; listed as Homo sapiens) was −0.5732

Data provenance is patent US20110143948A1.
